Assay: Stability of cannabinoid entourage and Vitamin E components of the powder concentrate by LCMSMS
Type: physicochemical
Details: powder stored at 21-25° C.; 19 days
Method: At each time period, 0.05 g of powder was dissolved in 10 ml-15 of ethanol, diluted to fall within the analytical range, and injected into the LCMSMS for analysis.
assay_endpoint: Stability of Plant-Derived Cannabinoid Compounds in Powder Concentrate (mg/g powder)
Numbers only, in mg/g powder.

Consider the following items and state reported Stability of Plant-Derived Cannabinoid Compounds in Powder Concentrate for each.
1. CCCCCc1cc(O)c(C/C=C(\C)CCC=C(C)C)c(O)c1
2. C=C(C)[C@@H]1CCC(C)=C[C@H]1c1c(O)cc(CCC)cc1O
3. CCCCCc1cc(O)c2c(c1)OC(C)(CCC=C(C)C)C=C2 (stereo not drawn)

Found:
1. 1.14
2. 0.048
3. 0.070

---

Kindly supply the reported Stability of Plant-Derived Cannabinoid Compounds in AB Red values for the records listed here.
test: Stability of cannabinoid compounds and Vitamin E components in Beverage 2 (AB Red) by LCMSMS; format: physicochemical; conditions: stored at 21-25° C., 300 days
One number for each entry, in µg/mL.

Use these answered entries as a reference point.
>>> measured_number("C=C(C)[C@@H]1CCC(C)=C[C@H]1c1c(O)cc(CCCCC)c(C(=O)O)c1O [CBDA, cannabidiolic acid]")
1.58
>>> measured_number("CCCCCc1cc2c(c(O)c1C(=O)O)[C@@H]1C=C(C)CC[C@H]1C(C)(C)O2 [D9 THCA, delta-9-tetrahydrocannabinolic acid]")
1.27
>>> measured_number("CCCCCc1cc(O)c(C/C=C(\\C)CCC=C(C)C)c(O)c1 [CBG, cannabigerol]")
4.47

Consider the following items and state reported Stability of Plant-Derived Cannabinoid Compounds in AB Red for each.
1. CCCc1cc(O)c2c(c1)OC(C)(C)[C@@H]1CCC(C)=C[C@@H]21 [THCV, delta-9-tetrahydrocannabivarin]
2. CCCCCc1cc(O)c2c(c1)OC(C)(C)c1ccc(C)cc1-2 [CBN, cannabinol]
3. CCCCCc1cc(O)c2c(c1)OC(C)(C)[C@@H]1CCC(C)=C[C@@H]21 [D9 THC, delta-9-tetrahydrocannabinol, reference compound]

Found:
[3.14, 2.70, 12.4]

Consider the following items and state reported Stability of Plant-Derived Cannabinoid Compounds in AB Red for each.
1. CCCCCc1cc(O)c2c(c1)OC1(C)CCC3C1C2C3(C)C (stereo not drawn) [CBL, cannabicyclol]
2. CCCCCc1cc(O)c2c(c1)OC(C)(CCC=C(C)C)C=C2 (stereo not drawn) [CBC, cannabichromene]
3. C=C(C)[C@@H]1CCC(C)=C[C@H]1c1c(O)cc(CCC)cc1O [CBDV, cannabidivarin]

Found:
1: 0.50; 2: 0.29; 3: 0.19

---

Kindly supply the reported Stability of Plant-Derived Cannabinoid Compounds in AB Red values for the records listed here.
assay: Stability of cannabinoid compounds and Vitamin E components in Beverage 2 (AB Red) by LCMSMS; assay type: physicochemical; settings: stored at 8° C., 3 days
One number for each entry, in µg/mL.

>>> measured_number("CCCc1cc(O)c2c(c1)OC(C)(C)[C@@H]1CCC(C)=C[C@@H]21 [THCV, delta-9-tetrahydrocannabivarin]")
3.20
>>> measured_number("CCCCCc1cc(O)c(C/C=C(\\C)CCC=C(C)C)c(O)c1")
4.70
>>> measured_number("CCCCCc1cc2c(c(O)c1C(=O)O)[C@@H]1C=C(C)CC[C@H]1C(C)(C)O2 [D9 THCA, delta-9-tetrahydrocannabinolic acid]")
1.35
>>> measured_number("CCCCCc1cc(O)c2c(c1)OC(C)(C)c1ccc(C)cc1-2")
2.83
>>> measured_number("CCCCCc1cc(O)c2c(c1)OC(C)(C)[C@@H]1CCC(C)=C[C@@H]21 [D9 THC, delta-9-tetrahydrocannabinol, reference compound]")
12.7

Consider the following items and state reported Stability of Plant-Derived Cannabinoid Compounds in AB Red for each.
1. C=C(C)[C@@H]1CCC(C)=C[C@H]1c1c(O)cc(CCC)cc1O
2. CCCCCc1cc(O)c2c(c1)OC1(C)CCC3C1C2C3(C)C (stereo not drawn)
3. C=C(C)[C@@H]1CCC(C)=C[C@H]1c1c(O)cc(CCCCC)c(C(=O)O)c1O
4. CCCCCc1cc(O)c2c(c1)OC(C)(CCC=C(C)C)C=C2 (stereo not drawn)

Found:
1. 0.199
2. 0.499
3. 1.64
4. 0.285
